# Target of assay: Gcr1 (UniProt P07261)
# Sequence: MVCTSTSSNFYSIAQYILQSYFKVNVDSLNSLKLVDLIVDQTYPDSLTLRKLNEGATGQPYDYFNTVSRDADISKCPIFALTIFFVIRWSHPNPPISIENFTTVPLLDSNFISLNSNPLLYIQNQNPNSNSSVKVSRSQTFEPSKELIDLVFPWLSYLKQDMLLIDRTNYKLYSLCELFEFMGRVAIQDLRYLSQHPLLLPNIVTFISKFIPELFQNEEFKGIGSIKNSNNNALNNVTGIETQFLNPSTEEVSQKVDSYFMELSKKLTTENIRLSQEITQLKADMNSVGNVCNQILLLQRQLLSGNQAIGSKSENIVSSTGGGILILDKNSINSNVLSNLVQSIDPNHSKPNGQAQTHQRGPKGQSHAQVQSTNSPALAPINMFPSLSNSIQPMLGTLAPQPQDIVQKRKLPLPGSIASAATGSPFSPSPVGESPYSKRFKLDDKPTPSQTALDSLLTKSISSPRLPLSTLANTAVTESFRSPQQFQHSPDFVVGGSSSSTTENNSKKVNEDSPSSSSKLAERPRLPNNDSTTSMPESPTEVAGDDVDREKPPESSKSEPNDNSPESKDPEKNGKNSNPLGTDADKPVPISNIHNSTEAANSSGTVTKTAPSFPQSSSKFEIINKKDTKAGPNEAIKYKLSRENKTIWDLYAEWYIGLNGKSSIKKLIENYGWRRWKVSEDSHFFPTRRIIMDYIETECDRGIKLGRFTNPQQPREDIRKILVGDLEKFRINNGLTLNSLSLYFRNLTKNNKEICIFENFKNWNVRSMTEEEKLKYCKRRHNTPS
# Assay procedure: PBM E-score (8-mer binding enrichment) (E-score (-0.5 to 0.5)); higher = stronger / more preferred TF binding
# Particulars: protein concentration: 100 nM; construct: GST-full length
Whole data set: some 33,000 sequences, median “E-score (-0.5 to 0.5)” near -0.011, cut for the highest 2% near 0.28. The sample as a whole holds a higher share of the highest values than the screen did.
Output Satisfied for PBM E-score not less than 0.09; output Not satisfied otherwise.

{"columns": ["Sequence", "Target of assay", "Category label"],
 "data": [
  ["AACCTAAA", "Gcr1 (UniProt P07261)", "Satisfied"],
  ["GAGGTTCC", "Gcr1 (UniProt P07261)", "Satisfied"],
  ["CGCATCCA", "Gcr1 (UniProt P07261)", "Satisfied"],
  ["GCCATCCC", "Gcr1 (UniProt P07261)", "Not satisfied"],
  ["CTCCTGAA", "Gcr1 (UniProt P07261)", "Not satisfied"],
  ["AGCCCCCG", "Gcr1 (UniProt P07261)", "Not satisfied"],
  ["ATCCTTAC", "Gcr1 (UniProt P07261)", "Not satisfied"],
  ["GTTCTCAA", "Gcr1 (UniProt P07261)", "Not satisfied"],
  ["CGCATCCG", "Gcr1 (UniProt P07261)", "Satisfied"],
  ["AAGCCCGA", "Gcr1 (UniProt P07261)", "Not satisfied"],
  ["ATCTAGAT", "Gcr1 (UniProt P07261)", "Not satisfied"],
  ["AGGGAAAT", "Gcr1 (UniProt P07261)", "Not satisfied"],
  ["CAAACTGA", "Gcr1 (UniProt P07261)", "Satisfied"],
  ["CTCTCCAA", "Gcr1 (UniProt P07261)", "Not satisfied"],
  ["GTCCTAAA", "Gcr1 (UniProt P07261)", "Satisfied"],
  ["TACCTAAA", "Gcr1 (UniProt P07261)", "Not satisfied"],
  ["CTACTATA", "Gcr1 (UniProt P07261)", "Satisfied"],
  ["GGTATCGA", "Gcr1 (UniProt P07261)", "Not satisfied"],
  ["ATCCTAAA", "Gcr1 (UniProt P07261)", "Satisfied"],
  ["GCCTCTCA", "Gcr1 (UniProt P07261)", "Not satisfied"],
  ["AAATTGTG", "Gcr1 (UniProt P07261)", "Not satisfied"],
  ["AAGCAAAA", "Gcr1 (UniProt P07261)", "Not satisfied"]
]}
